Cited source for all entries: patent US20250027068

- test_system: pooled human IgG (human IgG1,2,3 and 4)
Entries and their measured Enzyme Activity Endpoint Assay: scIgG follow.
Hi! Could you send only the number? It should be in ng/µL, unit omitted.

| protein | assay_endpoint | reading |
| --- | --- | --- |
| PRT-182 (protein) MANQEIRYSEVTPYHVTSVWTKGVTPPANFTQGEDVFHAPYVANQGWYDITKTFNGKDDLLCGAATAGNMLHWWFDQNKDQIKRYLEEHPEKQKINFNGEQMFDVKEAIDTKNHQLDSKLFEYFKEKAFPYLSTKHLGVFPDHVIDMFINGYRLSLTNHGPTPVKEGSKDPRGGIFDAVFTRGDQSKLLTSRHDFKEKNLKEISDLIKKELTEGKALGLSHTYANVRINHVINLWGADFDSNGNLKAIYVTDSDSNASIGMKKYFVGVNSAGKVAISAKKIKEDNIGAQVLGLFTLSTGQDSWNQTN | Enzyme Activity Endpoint Assay: scIgG | 27 |

Now let's try a different one.
// query Enzyme Activity Endpoint Assay: scIgG value for entry PRT-85 (protein) MANQEIRYSEVTPKTITSVWTKGVTPPADFTQGEDVFHAPYKPNQGWYDINKTFNGKDNLLCGAATAGNMLHWWFDQNKEQIEAYLKKHPEKQKIMFGDQELLDVRKAINTKDDQTDSKLFNYFKDKAFPNLSARRLGVMPDHVLDMFINGYRLNVTKTQTTDVNRTYQTKDKRGGFFDAVFTRGDQSKLLTNRHDFKEKNLKEISDLIKKELTEGKALGLSHTYANVRINHVINLWGADFDSEGNLKAIYVTDSDSNASIGMKKYYVGVNSAGKVAISAKEIKGENIGAQVLGLYTLSTGQDIWNQTN 0
